These data points were gathered from the supplement of paper PMC9112550.

# Test system: Escherichia coli TOP10;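 further: peptides expressed intracellularly from a pBAD plasmid library in pooled LB shake-flask culture, induced with 0.3% L-arabinose, DNA abundance read by NGS, three biological replicates, DESeq2 with apeglm shrinkage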
# TEST DETAILS: shrunken log2 fold change of peptide-encoding DNA abundance (4.5 h post-induction vs induction); higher = less antimicrobial activity (less host growth inhibition)
# SETTINGS: time post-induction: 4.5 h; library: site-saturation at positions 5, 18, 19, 20
ASSAY METRIC: shrunken log2 fold change
Numbers only.

# SEQ, shrunken log2 fold change
measured = [
    ("RRIRLRPPRLPRPRPRPKADPRP", -0.051),
    ("RRIRMRPPRLPRPRPRPASWPRP", 0.901),
    ("RRIRLRPPRLPRPRPRPQWSPRP", -0.0199),
    ("RRIRTRPPRLPRPRPRPYEVPRP", -0.0168),
    ("RRIRARPPRLPRPRPRPMVQPRP", -0.081),
]

Hi! Can you tell me shrunken log2 fold change for each of these sequences?
1. RRIRKRPPRLPRPRPRPSTQPRP
2. RRIRRRPPRLPRPRPRPWHTPRP
3. RRIRSRPPRLPRPRPRPQMPPRP
4. RRIRFRPPRLPRPRPRPCNFPRP

Response given:
1. 0.169
2. -0.456
3. 0.189
4. -0.183
